TESTED TARGET: mouse Kv1.3 (Mus musculus)
Construct: gene Kcna3; mouse Kv1.3 stably expressed in L929 cells
Sequence (P16390 whole entry): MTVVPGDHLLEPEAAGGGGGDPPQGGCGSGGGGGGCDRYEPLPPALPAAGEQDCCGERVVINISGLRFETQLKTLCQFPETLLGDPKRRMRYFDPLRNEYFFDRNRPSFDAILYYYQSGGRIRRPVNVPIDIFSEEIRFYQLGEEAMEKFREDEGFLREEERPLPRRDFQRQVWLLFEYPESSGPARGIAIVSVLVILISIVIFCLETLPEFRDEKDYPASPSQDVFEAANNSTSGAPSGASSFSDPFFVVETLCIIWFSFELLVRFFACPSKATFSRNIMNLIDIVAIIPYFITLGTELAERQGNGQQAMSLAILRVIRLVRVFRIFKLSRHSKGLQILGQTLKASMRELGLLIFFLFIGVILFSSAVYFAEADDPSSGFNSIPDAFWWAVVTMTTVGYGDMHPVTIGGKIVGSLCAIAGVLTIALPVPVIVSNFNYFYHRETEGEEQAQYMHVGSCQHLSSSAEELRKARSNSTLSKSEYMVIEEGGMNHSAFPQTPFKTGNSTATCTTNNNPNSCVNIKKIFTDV
EXPERIMENTAL DETAILS: whole-cell patch clamp
Assay type: cell-based
EXPERIMENTAL READOUT: IC50 (nM)
Give the value in nM but do not write nM after it.

Exam item: Kindly state the measured IC50 obtained for CC(C)/N=c1\cc2n(-c3ccc(Cl)cc3)c3ccccc3nc-2cc1Nc1ccc(Cl)cc1 with mouse Kv1.3 (Mus musculus).
Marked response: 470
